Origin of the recorded values: PubChem BioAssay (NCI)

system: PC-3 prostate; assay: NCI-60 one-dose screen, 48 h (100 = growth as untreated, 0 = no growth, -100 = all killed); conditions: 10 µM unless noted
About 83,000 compounds went through this panel and 20% of them were active in at least one assay; those are over-represented in the sample as a whole.
Answer each item with its documented growth.
Give the value in % but do not write % after it.

Lookup result for "Nc1ncnc2n[nH]nc12" ; measured growth: 64.5

Just so you know, measured growth for N#CC1(C#N)C(c2ccc(N(CCCl)CCCl)cc2)OC23CCCCC2C1(C#N)C(=N)O3 (centres undefined) came out at 74.8

# growth of O=C1CC2(CC3(Cl)C(Cl)=C(Cl)C2(Cl)C3(Cl)Cl)C(=O)O1 (centres undefined) = 93.6

Lab note: measured growth of "O=c1[nH]cc(N(CCCl)CCCl)c(=O)[nH]1" was 49.5

Lab note: measured growth of "O=C(N/N=C\c1ccc(N(CCCl)CCCl)cc1)c1cccc([N+](=O)[O-])c1" was 89.1

Lab book: growth of C=CC12CCN(CC1)C(C(O)c1ccnc3ccc(OC)cc13)C2 (centres undefined) noted as 66

Value of measured growth for the entry "O=[N+]([O-])c1cnc[nH]1" : 96.5

Entry "Cc1cc(N(CCCl)CCCl)ccc1C=Nc1cccnc1" — recorded growth = 63.1

Entry CCOP1(=O)CC(C)=C(Cl)C(P(=O)(OCC)OCC)C1 (centres undefined) , growth reported as 92.6

# growth of "CCOC(=O)[C@@H](C)C[C@H](Cc1ccccc1)NC(=O)c1csc([C@@H](C[C@H](C(C)C)N(C)C(=O)[C@@H](NC(=O)[C@H]2CCCCN2C)C(C)(C)C)OC(C)=O)n1" = 21.1

Form field growth, entry "CC[C@H](C)[C@H](NC(=O)[C@H]1CCCCN1C)C(=O)N(C)[C@H](C[C@@H](OC(C)=O)c1cccc(C(=O)N[C@@H](Cc2ccccc2)C[C@H](C)C(=O)O)n1)C(C)C" : 25.4

For this molecule ( CCC1CC(O)c2c(O)c3c(c(O)c2C1O)C(=O)c1cccc(O)c1C3=O (centres undefined) (tested in a mixture with another compound) ), measured growth is -33.4

// growth value for "COc1ccc2c(c1)c(-c1nc(-c3cn(C)c4ncccc34)cs1)cn2CCN1CCOCC1" : 17.6

For "COC(=O)[C@@H](C)C[C@H](Cc1ccccc1)NC(=O)c1nc([C@@H](C[C@H](C(C)C)N(C)C(=O)[C@@H](NC(=O)[C@H]2CCCN2C)C(C)C)OC(C)=O)sc1C" the molecule record lists growth as 17.2

Value of growth reported for the molecule "C=CCc1cc2c(cc1OCC)OCO2" is 80.8

Sample COc1ccc2c(c1)c(C1(O)CC(CSC#N)OC1=O)cn2C(=O)c1ccc(Cl)cc1 (centres undefined) ; growth observed: 96.2

Note to self: growth recorded for "O=P(N1CC1)(N1CC1)N1CCc2ccccc21" was 88.6

Notebook: "Cc1ccc(N2COOC3(OOC2)C2CC4CC(C2)CC3C4)cc1" , growth read as 93.5

growth measured on "COc1cc(C=Nc2cccc(Br)c2)ccc1N(CCCl)CCCl" = 68.4
